Where do the numbers come from? From PubChem BioAssay AID449763.

# method.notes: PERK-eIF2a-CHOP pathway stimulators – cell-based, CHO-CHOP luciferase reporter, luminescence, uHTS, primary screen (AID 449763);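 also: 100% = tunicamycin at 10 µg/mL and 0% = DMSO alone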
# measurement.context: UPR activation, at 10 µM, stronger effect = higher value, percent of tunicamycin response over DMSO baseline
In all, about 330,000 compounds went through this assay and about 1,100 (0.33%) were called active. The entries come from a sample that favours actives as a whole.
readout: activation (%)
Unit % implied. Number only.

The recorded activation for entry Cc1onc(C(=O)NCc2ccc(F)cc2)c1[N+](=O)[O-] equals -0.611

The recorded activation for entry CCc1noc(C)c1C(=O)NNC(=O)c1ccc(F)cc1 equals -0.408

The recorded activation for entry CCCCn1nc(C(=O)N2CCc3ccccc32)c2ccccc2c1=O equals -1.34

The recorded activation for entry COc1ccc2c(c1OC)C(=O)OC2Nc1nc(-c2ccccc2)cs1 (configuration not stated) equals 41.7

The recorded activation for entry Cc1ccc2oc(=O)c3cnn(CC(=O)N(Cc4ccco4)C4CCCCC4)c3c2c1 equals 0.347

The recorded activation for entry O=C1CC(c2ccccc2)CC(O)=C1C=NCCN1CCOCC1 (configuration not stated) equals -2.31

The recorded activation for entry CC1=CC(C)(C)Nc2ccc(OC(=O)C(Cc3ccccc3)N3C(=O)C4CCCCC4C3=O)cc21 (configuration not stated) equals -1.34

The recorded activation for entry Cc1cc2nc3n(c2cc1C)CC1CC(C(=O)NCCC(C)C)N(C)C31 (configuration not stated) equals -0.707

The recorded activation for entry CC1=CC(C)(C)Nc2ccc(OC(=O)CN3C(=O)C4CCCCC4C3=O)cc21 (configuration not stated) equals 67.7

The recorded activation for entry Oc1c(CN2CCN(c3ccc(F)cc3)CC2)cc(Cl)c2cccnc12 equals 415

The recorded activation for entry O=C1CC(c2cccc(Cl)c2)CC(O)=C1C=Nc1ccccc1 (configuration not stated) equals 50

The recorded activation for entry O=C1C=C(c2cccc(Cl)c2)C[C@@H](c2ccc(F)cc2)C1 equals -0.428

The recorded activation for entry N#Cc1ccsc1NC(=O)CN1CCN(S(=O)(=O)c2cc(Cl)ccc2Cl)CC1 equals -1.62

The recorded activation for entry Cc1ccc(CN2CCN(c3ncccn3)CC2)c(C)c1 equals 0.144

The recorded activation for entry CC(=O)c1ccc(NC(=O)c2ccc(-n3cncn3)c([N+](=O)[O-])c2)cc1 equals 2.02

The recorded activation for entry Brc1ccc2c(c1)[C@H]1OCC[C@H]1[C@@H](c1cccs1)N2 equals -1.2

The recorded activation for entry Cc1cc(NC(=O)CS(=O)(=O)c2cn(C)c3ccccc23)no1 equals 1.58

The recorded activation for entry CCc1ccccc1NC(=O)[C@@H]1CCC(=O)N1C1OC(=O)c2c1ccc(OC)c2OC (some centres not stated) equals -1.13

The recorded activation for entry O=C(/C=C/c1ccc([N+](=O)[O-])o1)NNC(=O)c1ccc(F)cc1 equals 129

The recorded activation for entry COc1cc(CC(=O)Nc2nc(-c3ccc(F)c(F)c3)cs2)cc(OC)c1OC equals 6.97

The recorded activation for entry CSc1nc(-c2ccccc2)nc(C(Cl)Cl)n1 equals 46.2

The recorded activation for entry O=C(Nc1c2c(nn1-c1ccccc1)CS(=O)(=O)C2)C1CCCC1 equals -0.808

----------
# method.notes: PERK-eIF2a-CHOP pathway stimulators – cell-based, CHO-CHOP luciferase reporter, luminescence, uHTS, primary screen (AID 449763);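 also: 100% = tunicamycin at 10 µg/mL and 0% = DMSO alone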
# measurement.context: UPR activation, at 10 µM, percent of tunicamycin response over DMSO baseline
Out of some 330,000 compounds screened, about 1,100 (0.33%) were called active.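 Rule for the calls: active = at 10 µM dose, activation of 40% or more, normalized to positive control; inactive = the rest.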 Many of the other results were omitted from the sample, so actives are more common in it than they were.
Outcome field: choose from True (active), False (inactive)

State the result this test recorded for COc1cc(/C=C2/C(=O)ON=C2C)ccc1OCc1ccccc1F .
True

State the result this test recorded for COc1cc(/C=C2/C(=O)ON=C2C)ccc1OCc1cccc(F)c1 .
False

State the result this test recorded for Cc1ccc(S(=O)(=O)CCC(=O)OCc2ccccc2)cc1 .
False

State the result this test recorded for Cc1ccc(-c2nnc(-c3ccc(NC(=O)c4cccs4)cc3)o2)cc1 .
True

----------
Give measured activation for each item. Keep answers brief.
# method.notes: PERK-eIF2a-CHOP pathway stimulators – cell-based, CHO-CHOP luciferase reporter, luminescence, uHTS, primary screen (AID 449763);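 also: 100% = tunicamycin at 10 µg/mL and 0% = DMSO alone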
# measurement.context: UPR activation, at 10 µM, stronger effect = higher value, percent of tunicamycin response over DMSO baseline
The whole screen tested about 330,000 compounds, of which about 1,100 (0.33%) were called active. The full list was thinned out, with actives kept by preference.
Unit % implied. Number only.

The recorded activation for entry OCCNc1nc(Nc2ccc(Cl)c(Cl)c2)nc2ccccc12 equals 51.9

The recorded activation for entry CCOc1cc(/C=N/NC(=O)c2ccc(CSc3nncn3C)cc2)ccc1OCC(=O)N1CCOCC1 equals 0.857

The recorded activation for entry C[C@H](CO)N1C[C@H](C)[C@@H](CN(C)C(=O)NC2CCCCC2)Oc2ccc(NC(=O)c3ccncc3)cc2C1=O equals 2.08

The recorded activation for entry Cn1cc(CN2CCC(C(O)CCc3ccccc3)CC2)c(-c2ccccc2F)n1 (centres undefined) equals -1.46

The recorded activation for entry COc1ccc(NC(=O)c2nc(-n3nc(C)cc3C)ccc2Cl)cc1Cl equals -0.184

The recorded activation for entry COc1ccc(C(C[N+](=O)[O-])n2nc(C)cc2C)cc1 (centres undefined) equals 59.5

The recorded activation for entry Cn1cc(CN2CCCC(CO)C2)c(-c2ccc(Oc3ccccc3)cc2)n1 (centres undefined) equals -1.18

The recorded activation for entry COC(=O)C(=Nc1ccccc1)/C(C(=O)C(=O)N(C)c1ccccc1)=C(\O)c1ccc(Cl)cc1 equals 0.244

The recorded activation for entry CC(CCn1cccn1)NC(=O)CCc1nnc(CCc2ccccc2)o1 (centres undefined) equals -1.47

The recorded activation for entry CCN(Cc1ccccc1)C(=O)CCS(=O)(=O)c1ccc2c(c1)oc(=O)n2C equals -2.75

The recorded activation for entry COc1ccc(C(=O)N2CCC(C(=O)Nc3ccc(C)cc3)CC2)cc1 equals -0.572

The recorded activation for entry CNc1nc(Nc2ccc(C)c(Cl)c2)nc(N)c1[N+](=O)[O-] equals 5.39

The recorded activation for entry CCCN(CCC)C(=S)Nc1cc(C(=O)OC)ccc1C(=O)OC equals 2.25

The recorded activation for entry N#Cc1cccc(NC(=O)COC(=O)c2ccccc2C(=O)c2ccc(Cl)c([N+](=O)[O-])c2)c1 equals 105

The recorded activation for entry CCOC(=O)CN(C(=O)CN1CCOCC1)c1ccc(Br)cc1 equals -1.27

The recorded activation for entry COc1ccc(C(=O)Nc2cc(S(=O)(=O)N3CCCC3)ccc2Cl)cc1 equals 0.727

The recorded activation for entry O=S(=O)(NCCc1ccc(F)cc1)c1cccc2cccnc12 equals 0.907

The recorded activation for entry O=C1CCN(C(=O)Nc2ccccc2)N1 equals -2.23

The recorded activation for entry Cc1ccc(NC(=O)C(=O)NCc2ccc(/C=N/NC(=O)c3c(C)nc4cc(C)ccn34)o2)cc1 equals 4.97

The recorded activation for entry O=C(c1c(F)cccc1F)N1CCN(S(=O)(=O)c2ccc3c(c2)OCCO3)CC1 equals 2.02

The recorded activation for entry Cc1nc2ccc(NC(=O)c3cccc(S(=O)(=O)N4CCOCC4)c3)cc2s1 equals 1.06

The recorded activation for entry Cc1ccc2cc3cc(C(=O)N4CCCCCC4)oc3nc2c1 equals 0.396

The recorded activation for entry O=S(=O)(NCC1CCCO1)c1cnc(Cl)c(Cl)c1 (centres undefined) equals 4.71

The recorded activation for entry Cc1cccc(Nc2nc3c(S(=O)(=O)c4ccccc4)nnn3c3ccccc23)c1C equals 145

The recorded activation for entry C=CCN1CN(S(=O)(=O)c2ccc(OC)cc2)c2nc3ccccc3nc21 equals 0.29

The recorded activation for entry CN(C)c1ccc(/C=N/Nc2cc(N3CCOCC3)nc(N3CCOCC3)n2)cc1 equals -1.02

The recorded activation for entry CCn1c(SCC(=O)Nc2cc(C)ccc2C)nnc1-c1cnccn1 equals -1.53

The recorded activation for entry CC(C)(C)n1nc(Cc2cccc3ccccc23)c(C#N)c1N equals 0.111

The recorded activation for entry COc1ccccc1/C=N\Nc1cc(C)nc(-n2nc(C)cc2C)n1 equals 80.6
